Reference for the values: patent US20190144550A1

# tested.system: T1, human EGFRvIII expressed on cells (human, UniProt P00533 298-1210)
# T1 construct: the F98-npEGFRvIII line was obtained from ATCC and its construct is not described; also called F98-npEGFRvIII; F98-EGFRvIII
# procedure.details: flow cytometry, F98-npEGFRvIII against F98, F98-EGFRwt and A431 cells
property.label: fold MFI on EGFRvIII expressing cell line over non-expressing cell lines

Supply reported fold MFI on EGFRvIII expressing cell line over non-expressing cell lines belonging to this binder: 20E12 (antibody, V domains shown, Hybridoma supernatant (AlivaMab mouse); captured/detected via mouse Fc) VH: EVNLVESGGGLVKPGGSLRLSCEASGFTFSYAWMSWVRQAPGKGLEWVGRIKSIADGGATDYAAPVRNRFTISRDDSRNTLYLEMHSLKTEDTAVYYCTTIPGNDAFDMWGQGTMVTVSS VL: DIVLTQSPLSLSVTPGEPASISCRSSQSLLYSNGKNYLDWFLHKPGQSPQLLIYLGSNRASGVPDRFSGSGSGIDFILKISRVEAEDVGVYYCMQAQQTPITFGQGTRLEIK
≥ 10 fold

Supply reported fold MFI on EGFRvIII expressing cell line over non-expressing cell lines belonging to this binder: 46E10 (antibody, V domains shown, Hybridoma supernatant (AlivaMab mouse); captured/detected via mouse Fc) VH: QVTLKESGPVLVKPTETLTLTCTVSGFSLSNARMGVSWIRQPPGKALEWLAHIFSTDEKSIRRSLRSRLTLSKDTSKSQVVLIMTNMDPVDTATYYCARDSSNYEGYFDYWGQGTLVTVSS VL: EVVMTQSPPNLSVSPGERATLSCRASQSVTSNFAWYQQRPGQSPRLLLYGASTRATGVPGRFSGSGSGTENILTISSLQSEDFAVYFCQQYKDWPFTFGPGSKVDIK
≥ 10 fold
